Answer each item with its documented Percent IL-13 R130Q (30 ng/ml) Binding.
- measured target: T1, human IL-13 R130Q variant (R110Q of the mature chain) (human, UniProt P35225 35-146, Biotinylated on amines (NHS-LC-biotin, 4:1) in ELISA, panning and competition assays. The letters are unchanged.)
- T1 construct: R130Q counts from Met 1 of the signal peptide, R110Q on the mature chain; Bought from Peprotech; also called IL-13 R110Q; b-R130Q
- T1 sequence (P35225 35-146 limits assumed, stated change not applied): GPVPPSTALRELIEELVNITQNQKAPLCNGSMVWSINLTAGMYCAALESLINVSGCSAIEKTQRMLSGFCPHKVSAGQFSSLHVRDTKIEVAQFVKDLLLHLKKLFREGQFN
- assay text: direct binding ELISA, mAb captured by anti-human Fc, biotinylated IL-13 R130Q, crude supernatant;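 further: 100% is the positive control mAb signal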
Return type: number; implicit unit %.

Challenge: Reported Percent IL-13 R130Q (30 ng/ml) Binding for Lc14Hc2 (antibody, V domains shown) VH: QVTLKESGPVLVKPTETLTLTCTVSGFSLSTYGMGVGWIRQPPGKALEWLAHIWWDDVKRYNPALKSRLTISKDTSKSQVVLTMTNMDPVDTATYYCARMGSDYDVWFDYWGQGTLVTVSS VL: DIQMTQSPSTLSASVGDRVTITCRASKSISKYLAWYQQKPGKAPKLLIYSGSTLQSGVPSRFSGSGSGTEFTLTISSLQPDDFATYYCQQHNEYPYTFGGGTKVEIK : what is it?
Response given: 91.8

Challenge: Same read-out for Lc3Hc2 (antibody, V domains shown) VH: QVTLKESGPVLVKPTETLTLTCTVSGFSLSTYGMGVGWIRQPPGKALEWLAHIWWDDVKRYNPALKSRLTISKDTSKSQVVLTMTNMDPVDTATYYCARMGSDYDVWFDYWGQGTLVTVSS VL: AIQLTQSPSSLSASVGDRVTITCRASKSISKYLAWYQQKPGKAPKLLIYSGSTLQSGVPSRFSGSGSGTDFTLTISSLQPEDFATYYCQQHNEYPYTFGGGTKVEIK ?
Response given: 85.3

Challenge: Same read-out for Lc4Hc2 (antibody, V domains shown) VH: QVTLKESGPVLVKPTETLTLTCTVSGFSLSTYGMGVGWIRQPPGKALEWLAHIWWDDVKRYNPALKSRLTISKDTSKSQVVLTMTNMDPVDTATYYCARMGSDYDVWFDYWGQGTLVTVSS VL: DIQMTQSPSSLSASVGDRVTITCRASKSISKYLAWYQQKPGKAPKRLIYSGSTLQSGVPSRFSGSGSGTEFTLTISSLQPEDFATYYCQQHNEYPYTFGGGTKVEIK ?
Response given: 84.7

Reference source for all entries: patent US20120045438A1
